Molecular target: T1, human NMI (N-myc Interacting protein), recombinant protein (human, UniProt Q13287 1-307, limits assumed)
T1 construct: Gene ID: 9111; also called hNMI; antigen
T1 sequence (looked up): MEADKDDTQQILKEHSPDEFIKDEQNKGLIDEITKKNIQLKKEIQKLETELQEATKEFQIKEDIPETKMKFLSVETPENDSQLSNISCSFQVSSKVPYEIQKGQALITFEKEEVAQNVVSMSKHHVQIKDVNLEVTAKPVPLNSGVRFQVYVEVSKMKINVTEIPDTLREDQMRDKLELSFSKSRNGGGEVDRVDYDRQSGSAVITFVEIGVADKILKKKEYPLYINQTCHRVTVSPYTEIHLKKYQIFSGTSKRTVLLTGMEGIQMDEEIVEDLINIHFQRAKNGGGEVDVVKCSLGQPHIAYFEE
Test: sandwich ELISA; detection 94C4-1-biotin 1µg/mL; hNMI 50,000.000 pg/mL
OD450 listing for selected binders.
Give just the number in OD450; leave the unit off.

The examples below pair each entry with its known result.
| Binder | OD450, OD450 |
| --- | --- |
| monoclonal antibody 240B10-1 (antibody, V domains shown, Rabbit monoclonal antibody) VH: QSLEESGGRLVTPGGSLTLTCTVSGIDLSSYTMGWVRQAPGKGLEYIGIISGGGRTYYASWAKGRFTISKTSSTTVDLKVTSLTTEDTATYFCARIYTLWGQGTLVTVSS VL: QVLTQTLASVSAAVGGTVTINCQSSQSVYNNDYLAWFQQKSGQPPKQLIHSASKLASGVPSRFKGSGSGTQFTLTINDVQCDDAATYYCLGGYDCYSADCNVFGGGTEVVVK | 3.1 |
| monoclonal antibody 98G10 (antibody, V domains shown, Rabbit monoclonal antibody) VH: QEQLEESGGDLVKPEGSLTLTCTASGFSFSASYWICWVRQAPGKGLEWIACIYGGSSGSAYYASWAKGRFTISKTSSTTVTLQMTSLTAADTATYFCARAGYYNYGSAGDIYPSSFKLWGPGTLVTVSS VL: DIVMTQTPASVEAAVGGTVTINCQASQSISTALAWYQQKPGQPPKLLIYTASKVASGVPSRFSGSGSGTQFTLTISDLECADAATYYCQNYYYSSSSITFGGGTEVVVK | 3.04 |
| monoclonal antibody 39B4 (antibody, V domains shown, Rabbit monoclonal antibody; also called 39B4-1) VH: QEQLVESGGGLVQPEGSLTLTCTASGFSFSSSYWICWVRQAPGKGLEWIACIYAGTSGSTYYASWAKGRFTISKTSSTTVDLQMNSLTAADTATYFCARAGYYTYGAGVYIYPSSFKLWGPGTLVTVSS VL: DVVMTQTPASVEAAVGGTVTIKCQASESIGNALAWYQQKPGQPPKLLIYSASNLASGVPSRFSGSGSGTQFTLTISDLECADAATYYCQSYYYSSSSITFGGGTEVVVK | 3.1 |

Now for another entry.
Could you please provide reported OD450 for monoclonal antibody B-8 (antibody, V domains shown, Rabbit monoclonal antibody; also called B8-1) VH: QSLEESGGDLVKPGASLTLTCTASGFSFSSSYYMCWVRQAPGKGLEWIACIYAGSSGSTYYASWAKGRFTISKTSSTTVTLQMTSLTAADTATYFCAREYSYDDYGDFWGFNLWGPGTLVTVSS VL: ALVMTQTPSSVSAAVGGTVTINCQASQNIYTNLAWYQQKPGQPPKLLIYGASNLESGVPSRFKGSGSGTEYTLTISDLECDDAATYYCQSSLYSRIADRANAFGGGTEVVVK ? Thanks! 3.11
